# assay remarks: Chromatographic hydrophobicity index in acetonitrile solution under isocratic conditions at pH 6.8
# Format: physicochemical
Checkbox rule: CHI lower than 40 = Yes; CHI not lower than 40 = No.

# count of solved cases: 5
Bench note: check whether COC(=O)CCC(=O)CNC(=O)[C@H](Cc1c[nH]c2ccccc12)NC(C)=O shows CHI below 40
Yes

Bench note: check whether COC(=O)CCC(=O)CNC(=O)[C@@H]1CCCN1C(C)=O shows CHI below 40
Yes

Bench note: check whether COC(=O)CCC(=O)CNC(=O)[C@H](CO)NC(C)=O shows CHI below 40
Yes

Bench note: check whether COC(=O)CCC(=O)CNC(=O)[C@@H](C)NC(C)=O shows CHI below 40
Yes

Bench note: check whether CC(=O)N[C@@H](Cc1ccccc1)C(=O)NCC(=O)CCC(=O)O[C@@H]1C[C@H](C)CCC1C(C)C (stereo not given in full) shows CHI below 40
No

Continuing:
Bench note: check whether COC(=O)CCC(=O)CNC(=O)[C@@H](Cc1c[nH]c2ccccc12)NC(C)=O shows CHI below 40
Yes

Bench note: check whether CC[C@H](C)[C@H](NC(C)=O)C(=O)NCC(=O)CCC(=O)OC shows CHI below 40
Yes

Bench note: check whether CCOC(=O)CCC(=O)CNC(=O)[C@H](Cc1ccccc1)NC(C)=O shows CHI below 40
No

Bench note: check whether COC(=O)CCC(=O)CNC(=O)[C@H](CCCCN)NC(C)=O shows CHI below 40
Yes

Bench note: check whether COC(=O)CCC(=O)CNC(=O)[C@H](CCSC)NC(C)=O shows CHI below 40
Yes

###

# assay remarks: Chromatographic hydrophobicity index in acetonitrile solution under isocratic conditions at pH 6.8
# Format: physicochemical
Recorded CHI values for a group of molecules are listed next.

Tell me its CHI given COC(=O)CCC(=O)CNC(=O)[C@H](CCC(=O)O)NC(C)=O as the entry.
23.14

Tell me its CHI given COC(=O)CCC(=O)CNC(=O)[C@@H](NC(C)=O)C(C)C as the entry.
25.64

Tell me its CHI given COC(=O)CCC(=O)CNC(=O)[C@H](Cc1ccc(O)cc1)NC(C)=O as the entry.
34.14

Tell me its CHI given COC(=O)CCC(=O)CNC(=O)[C@H](CC(C)C)NC(C)=O as the entry.
36.67

Tell me its CHI given CCCCCCOC(=O)CCC(=O)CNC(=O)[C@H](Cc1ccccc1)NC(C)=O as the entry.
56.64

Tell me its CHI given COC(=O)CCC(=O)CNC(=O)[C@H](C)NC(C)=O as the entry.
14.18

Tell me its CHI given COC(=O)CCC(=O)CNC(=O)[C@H](NC(C)=O)C(C)C as the entry.
24.74

Tell me its CHI given COC(=O)CCC(=O)CNC(=O)[C@H](Cc1ccccc1)NC(C)=O as the entry.
34.71

Tell me its CHI given COC(=O)CCC(=O)CNC(=O)[C@@H](Cc1ccccc1)NC(C)=O as the entry.
37.71

Tell me its CHI given COC(=O)CCC(=O)CNC(=O)[C@@H](CC(C)C)NC(C)=O as the entry.
33.89

Tell me its CHI given COC(=O)CCC(=O)CNC(=O)CNC(C)=O as the entry.
10.31

###

# assay remarks: Chromatographic hydrophobicity index in methanol solution under isocratic conditions at pH 6.8
# Format: physicochemical
observed property: CHI
Answer with a bare number; do not write a unit.

Tell me its CHI given COC(=O)CCC(=O)CNC(=O)[C@@H](Cc1c[nH]c2ccccc12)NC(C)=O as the entry.
22.08

Tell me its CHI given COCCOC(=O)CCC(=O)CNC(=O)[C@H](Cc1ccccc1)NC(C)=O as the entry.
79.03

Tell me its CHI given CCOC(=O)CCC(=O)CNC(=O)[C@H](Cc1ccccc1)NC(C)=O as the entry.
57.58

Tell me its CHI given COC(=O)CCC(=O)CNC(=O)[C@@H]1CCCN1C(C)=O as the entry.
27.47

###

# System: PAM212
# assay remarks: Drug uptake in mouse PAM212 cells assessed as intracellular 5-aminolaevulinic acid level per mg of protein at 0.1 mM after 4 hrs
# Format: ADME, cell-based
# reported conditions: pam212, 4 h, 100 µM
Recorded log10(Drug uptake) values for a group of compounds are listed next.
Heads up, the numbers here are log10 of Drug uptake in µg/mg units.

Tell me its log10(Drug uptake) given COC(=O)CCC(=O)CNC(=O)[C@@H](Cc1ccccc1)NC(C)=O as the entry.
0.03

Tell me its log10(Drug uptake) given COC(=O)CCC(=O)CNC(=O)[C@H](C)NC(C)=O as the entry.
-0.06

###

# assay remarks: Chromatographic hydrophobicity index in methanol solution under isocratic conditions at pH 6.8
# Assay type: physicochemical
Checkbox rule: CHI lower than 40 = label 1; CHI not lower than 40 = label 0.

# count of solved cases: 4
Bench note: check whether CC(=O)N[C@@H](Cc1ccccc1)C(=O)NCC(=O)CCC(=O)O[C@@H]1C[C@H](C)CCC1C(C)C (some centres not stated) shows CHI below 40
label 0

Bench note: check whether COC(=O)CCC(=O)CNC(=O)[C@H](Cc1cnc[nH]1)NC(C)=O shows CHI below 40
label 1

Bench note: check whether COC(=O)CCC(=O)CNC(=O)[C@H](CC(C)C)NC(C)=O shows CHI below 40
label 0

Bench note: check whether COC(=O)CCC(=O)CNC(=O)[C@@H](Cc1ccccc1)NC(C)=O shows CHI below 40
label 0

Continuing:
Bench note: check whether COC(=O)CCC(=O)CNC(=O)[C@H](CO)NC(C)=O shows CHI below 40
label 1

Bench note: check whether COCCOCCOC(=O)CCC(=O)CNC(=O)[C@H](Cc1ccccc1)NC(C)=O shows CHI below 40
label 0

Bench note: check whether COC(=O)CCC(=O)CNC(=O)[C@H](CC(=O)O)NC(C)=O shows CHI below 40
label 1

Bench note: check whether COC(=O)CCC(=O)CNC(=O)[C@@H](CC(C)C)NC(C)=O shows CHI below 40
label 0

Bench note: check whether COC(=O)CCC(=O)CNC(=O)CNC(C)=O shows CHI below 40
label 1

###

# Tested on: Caco-2
# assay remarks: Drug uptake in human Caco-2 cells assessed as intracellular 5-aminolaevulinic acid level per mg of protein at 1 mM after 4 hrs
# Format: ADME, cell-based
# reported conditions: caco-2, 4 h, 1000 µM
Recorded Drug uptake values for a group of compounds are listed next.
# number only, unit µg/mg dropped from output

# example entries with known answers
Tell me its Drug uptake given NCC(=O)CCC(=O)O [AMINOLEVULINIC ACID] as the entry.
2.66

Tell me its Drug uptake given COC(=O)CCC(=O)CNC(=O)[C@H](Cc1c[nH]c2ccccc12)NC(C)=O as the entry.
8.35

Tell me its Drug uptake given COC(=O)CCC(=O)CNC(=O)[C@H](CC(C)C)NC(C)=O as the entry.
6.54

Tell me its Drug uptake given COC(=O)CCC(=O)CNC(=O)[C@H](Cc1ccccc1)NC(C)=O as the entry.
11.9

Continuing:
Tell me its Drug uptake given CCCCCCOC(=O)CCC(=O)CNC(=O)[C@H](Cc1ccccc1)NC(C)=O as the entry.
14.8

###

Recorded Drug uptake values for a group of molecules are listed next.
# System: Caco-2
# assay remarks: Drug uptake in human Caco-2 cells assessed as PpIX production per mg of protein at 1 mM after 4 hrs
# Type: ADME, cell-based
# reported conditions: caco-2, 4 h, 1000 µM
# number only, unit ng/mg dropped from output

# example entries with known answers
Tell me its Drug uptake given CCCCCCOC(=O)CCC(=O)CNC(=O)[C@H](Cc1ccccc1)NC(C)=O as the entry.
480

Tell me its Drug uptake given COC(=O)CCC(=O)CNC(=O)[C@H](Cc1ccccc1)NC(C)=O as the entry.
594

Tell me its Drug uptake given COC(=O)CCC(=O)CNC(=O)[C@H](CC(C)C)NC(C)=O as the entry.
612

Tell me its Drug uptake given COC(=O)CCC(=O)CNC(=O)[C@H](Cc1c[nH]c2ccccc12)NC(C)=O as the entry.
-5.9

Kindly review the next molecule as well.
Tell me its Drug uptake given NCC(=O)CCC(=O)O as the entry.
603

###

# assay remarks: Chromatographic hydrophobicity index in acetonitrile solution under isocratic conditions at pH 6.8
# Assay type: physicochemical
Checkbox rule: CHI lower than 20 = 1; CHI not lower than 20 = 0.

Bench note: check whether COCCOC(=O)CCC(=O)CNC(=O)[C@H](Cc1ccccc1)NC(C)=O shows CHI below 20
0

Bench note: check whether COC(=O)CCC(=O)CNC(=O)[C@H]1CCCN1C(C)=O shows CHI below 20
1

Bench note: check whether COC(=O)CCC(=O)CNC(=O)[C@H](Cc1cnc[nH]1)NC(C)=O shows CHI below 20
1

Bench note: check whether COCCOCCOC(=O)CCC(=O)CNC(=O)[C@H](Cc1ccccc1)NC(C)=O shows CHI below 20
0
